Reported viability, T/C values are given for each entry in this list.
Test system: HOP-62 complex spheroids with HUVEC/MSC, viability
Experiment: Anticancer human tumor HOP-62 cell line growth inhibition [RAS];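 further: spheroids exposed to agents for seven days before readout; 100% = DMSO vehicle control viability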
Conditions: second compound 10 µM; first compound 1 µM; stronger effect = lower value
Excerpt: RAS pathway inhibitors in Combinations in Complex Spheroids A high-throughput screen of multi-cell type tumor spheroids was designed to identify active combinations of RAS pathway inhibitors and targeted small molecules. Complex spheroids include a stromal component modeled by human endothelial cells (HUVEC) and fibroblasts modeled by human mesenchymal stem cells (MSCs). […] Compounds. […] If the clinical Cmax for an agent had not been determined, the highest concentration tested was 10 microM. […]
REPORTED_PROPERTY: viability, T/C (%)

1) CC(C)NCC(C(=O)N1CCN(c2ncnc3c2C(C)CC3O)CC1)c1ccc(Cl)cc1 (stereo not given) + C#Cc1c(F)ccc2cc(O)cc(-c3ncc4c(N5CC6CCC(C5)N6)nc(OCC56CCCN5CC(F)C6)nc4c3F)c12 :: 23
2) C=CC(=O)N1CCN(c2nc(OCC3CCCN3C)nc3c(F)c(-c4nc(N)cc(C)c4C(F)(F)F)c(Cl)cc23)C(C)C1 (stereo not given) + C#Cc1c(F)ccc2cc(O)cc(-c3ncc4c(N5CC6CCC(C5)N6)nc(OCC56CCCN5CC(F)C6)nc4c3F)c12 :: 37
3) NC1c2ccccc2OC12CCN(c1cnc3c(N4CCCc5ncccc54)n[nH]c3n1)CC2 (stereo not given) + C#Cc1c(F)ccc2cc(O)cc(-c3ncc4c(N5CC6CCC(C5)N6)nc(OCC56CCCN5CC(F)C6)nc4c3F)c12 :: 8.99
4) C=CC(=O)Nc1cc(Nc2nccc(-c3cn(C)c4ccccc34)n2)c(OC)cc1N(C)CCN(C)C + C#Cc1c(F)ccc2cc(O)cc(-c3ncc4c(N5CC6CCC(C5)N6)nc(OCC56CCCN5CC(F)C6)nc4c3F)c12 :: 29.5
5) Nc1ccn(C2OC(CO)C(O)C2(F)F)c(=O)n1 (stereo not given) + C#Cc1c(F)ccc2cc(O)cc(-c3ncc4c(N5CC6CCC(C5)N6)nc(OCC56CCCN5CC(F)C6)nc4c3F)c12 :: 6.83
6) CC1(O)CCCC1n1c(=O)c(C(F)F)cc2cnc(NC3CCN(S(C)(=O)=O)CC3)nc21 (stereo not given) + C#Cc1c(F)ccc2cc(O)cc(-c3ncc4c(N5CC6CCC(C5)N6)nc(OCC56CCCN5CC(F)C6)nc4c3F)c12 :: 29.4
7) CCC(CC)c1cc(NC2CCC(N)C2)n2nccc2n1 (stereo not given) + C#Cc1c(F)ccc2cc(O)cc(-c3ncc4c(N5CC6CCC(C5)N6)nc(OCC56CCCN5CC(F)C6)nc4c3F)c12 :: 70.2
8) O=C(c1ccc(F)c(F)c1Nc1ccc(I)cc1F)N1CC(O)([C@@H]2CCCCN2)C1 + C#Cc1c(F)ccc2cc(O)cc(-c3ncc4c(N5CC6CCC(C5)N6)nc(OCC56CCCN5CC(F)C6)nc4c3F)c12 :: 11.7
9) Cc1nc(N2CCC3(CC2)COC(C)C3N)c(CO)nc1Sc1ccnc(N)c1Cl (stereo not given) + C#Cc1c(F)ccc2cc(O)cc(-c3ncc4c(N5CC6CCC(C5)N6)nc(OCC56CCCN5CC(F)C6)nc4c3F)c12 :: 10.1
10) CC(=O)OC12COC1CC(O)C1(C)C(=O)C(O)C3=C(C)C(OC(=O)C(O)C(NC(=O)OC(C)(C)C)c4ccccc4)CC(O)(C(OC(=O)c4ccccc4)C21)C3(C)C (stereo not given) + C#Cc1c(F)ccc2cc(O)cc(-c3ncc4c(N5CC6CCC(C5)N6)nc(OCC56CCCN5CC(F)C6)nc4c3F)c12 :: 13.7
